# Measured Target: T1, Cav3.1 (Homo sapiens, UniProt O43497)
# T1 construct: expressed in transfected cells; host or cells: HEK-293, stably transfected
# T1 sequence (O43497 whole entry): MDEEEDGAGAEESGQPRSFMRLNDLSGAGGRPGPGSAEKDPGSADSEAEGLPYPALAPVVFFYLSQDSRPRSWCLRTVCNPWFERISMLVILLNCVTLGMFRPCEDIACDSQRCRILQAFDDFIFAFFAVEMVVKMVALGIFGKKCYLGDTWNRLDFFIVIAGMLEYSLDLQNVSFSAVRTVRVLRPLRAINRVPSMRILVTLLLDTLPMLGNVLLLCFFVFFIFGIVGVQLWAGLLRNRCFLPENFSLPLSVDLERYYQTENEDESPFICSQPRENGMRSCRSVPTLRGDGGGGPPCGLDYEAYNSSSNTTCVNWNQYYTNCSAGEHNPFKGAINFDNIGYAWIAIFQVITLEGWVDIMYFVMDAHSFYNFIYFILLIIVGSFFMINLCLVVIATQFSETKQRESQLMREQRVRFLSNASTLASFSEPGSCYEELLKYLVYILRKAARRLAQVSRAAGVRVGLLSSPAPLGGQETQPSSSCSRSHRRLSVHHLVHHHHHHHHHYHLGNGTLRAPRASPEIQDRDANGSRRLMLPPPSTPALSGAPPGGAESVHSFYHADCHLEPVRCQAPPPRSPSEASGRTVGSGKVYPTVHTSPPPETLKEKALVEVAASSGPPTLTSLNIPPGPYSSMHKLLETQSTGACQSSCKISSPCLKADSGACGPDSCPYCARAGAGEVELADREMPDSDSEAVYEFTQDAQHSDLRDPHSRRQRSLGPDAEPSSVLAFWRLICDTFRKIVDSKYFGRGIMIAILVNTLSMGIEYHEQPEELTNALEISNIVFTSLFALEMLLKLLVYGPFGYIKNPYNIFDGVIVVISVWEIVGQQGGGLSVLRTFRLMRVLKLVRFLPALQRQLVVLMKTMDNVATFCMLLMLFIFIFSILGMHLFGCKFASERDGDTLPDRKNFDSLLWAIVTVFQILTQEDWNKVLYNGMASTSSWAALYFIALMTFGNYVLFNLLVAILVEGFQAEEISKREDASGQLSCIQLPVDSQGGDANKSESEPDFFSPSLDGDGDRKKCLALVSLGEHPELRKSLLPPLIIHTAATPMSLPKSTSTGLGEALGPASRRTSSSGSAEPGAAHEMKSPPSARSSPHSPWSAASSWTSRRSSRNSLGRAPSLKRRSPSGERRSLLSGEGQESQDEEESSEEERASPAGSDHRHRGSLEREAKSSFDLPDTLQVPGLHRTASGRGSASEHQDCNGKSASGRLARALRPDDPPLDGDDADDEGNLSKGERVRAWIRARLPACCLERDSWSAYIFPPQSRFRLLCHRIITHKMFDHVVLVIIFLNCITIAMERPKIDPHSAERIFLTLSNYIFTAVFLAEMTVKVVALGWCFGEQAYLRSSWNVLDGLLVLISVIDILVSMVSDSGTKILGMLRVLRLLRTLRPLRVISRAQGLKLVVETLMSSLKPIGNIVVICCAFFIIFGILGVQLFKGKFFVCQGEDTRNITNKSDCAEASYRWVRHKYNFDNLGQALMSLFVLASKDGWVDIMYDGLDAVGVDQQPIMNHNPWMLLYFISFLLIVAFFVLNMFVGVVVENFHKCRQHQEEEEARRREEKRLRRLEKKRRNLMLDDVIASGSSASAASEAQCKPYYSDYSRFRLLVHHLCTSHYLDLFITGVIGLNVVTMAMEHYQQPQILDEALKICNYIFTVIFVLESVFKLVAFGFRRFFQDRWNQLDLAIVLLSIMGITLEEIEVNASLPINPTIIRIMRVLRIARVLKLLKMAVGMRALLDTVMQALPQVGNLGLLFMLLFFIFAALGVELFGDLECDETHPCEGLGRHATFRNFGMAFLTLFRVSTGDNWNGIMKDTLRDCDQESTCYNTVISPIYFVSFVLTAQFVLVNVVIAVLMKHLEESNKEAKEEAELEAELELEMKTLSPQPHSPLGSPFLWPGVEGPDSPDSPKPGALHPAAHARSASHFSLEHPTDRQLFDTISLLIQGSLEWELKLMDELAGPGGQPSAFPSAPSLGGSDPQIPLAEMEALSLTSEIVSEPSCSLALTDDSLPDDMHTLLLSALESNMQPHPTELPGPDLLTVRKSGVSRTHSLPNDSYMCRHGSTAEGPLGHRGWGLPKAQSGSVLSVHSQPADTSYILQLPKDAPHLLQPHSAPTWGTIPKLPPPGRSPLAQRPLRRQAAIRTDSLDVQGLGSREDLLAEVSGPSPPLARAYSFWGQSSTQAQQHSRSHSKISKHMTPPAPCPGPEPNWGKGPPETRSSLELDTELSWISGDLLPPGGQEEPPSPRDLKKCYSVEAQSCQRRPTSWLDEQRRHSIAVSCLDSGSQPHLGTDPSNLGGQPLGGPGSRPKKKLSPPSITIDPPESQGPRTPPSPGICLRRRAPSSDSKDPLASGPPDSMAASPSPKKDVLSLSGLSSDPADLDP
# Assay Procedure: Whole-cell patch clamp of Cav3.1 dependent LVA calcium current in HEK-293/Cav3.1 cells transiently transfected with γ subunits (Example 1)
# Type: cell-based
# Measurement Parameters: Table 2
# Protocol: 2.3. Transfection. […] 2.4. […] Whole-cell calcium currents were recorded using an Axopatch-1 D patch clamp system and Clampex 8.0 software. […] Recordings from HEK-293 cells were made 48-96 h posttransfection, at which time expression, as measured by GFP fluorescence, peaked. […] Current-voltage relationships for all HEK-293 and HL-1 cells were measured using 50 ms test depolarizations. […] Time to peak was determined using the current-voltage protocol described above. […]
Observed Property: Activation k

Fill blank: measured Activation k of the molecule γ6L: rat calcium channel γ6 subunit, long isoform (AF361343), SEQ ID NO:48 (protein, listed as Rattus norvegicus) MMWSNFFMQEEDRRRTAVGRRRAQEQQNLGLTPEREGKIKLGLLVAIVGATLAVLAVGTEFWVELNTYKTNGSAVCEAAHLGLWKVCIKRLWQADVPAGRETCGPAELPGEANCTYFKFFTTGENAHIFQRTTKKEVNLAAAVIAVLGLTAMALGCLCVIMVLSKGAEFLLRLGAVCFGLSGLLLFVSLEVFRHSVRALLQGVNPETPPAPRLAYEYSWSLGCGVGAGLILLLGGVCFLLLTLPSWPWRSLCPKRGGPTA is ____.
12.7 ± 1.5 (n = 4)

Ref: patent US8022177B2
